PROCEDURE SUMMARY: Solubility measurement of saturated solutions by HPLC at room temperature (0 h and 24 h)
Type: physicochemical
PARTICULARS: buffered water with excipients, pH 4, aqueous with cosolvent or surfactant or cyclodextrin, thermodynamic from solid, CBS 30 mM pH 4.0, NaCl 6 mg/mL; SBE-beta-CD 40 mg/mL + Propylene glycol 20 mg/mL; 24 h; pH exp 4.2
QUANTITY NAME: solubility at 24 h (µg/mL)
Respond with the bare value in µg/mL.

Entry COc1cc(N2CCNCC2)ccc1Nc1ncc2c(n1)-n1ccc(C(=O)Nc3c(C)cccc3C)c1CC2 [compound of formula (I)] ; solubility at 24 h = 3440

###

PROCEDURE SUMMARY: Solubility measurement of saturated solutions by HPLC at room temperature (0 h and 24 h)
Format: physicochemical
PARTICULARS: buffered water with excipient (saturated solution), pH 4, aqueous with cosolvent or surfactant or cyclodextrin, thermodynamic from solid, CBS 30 mM pH 4.0, NaCl 3 mg/mL; SBE-beta-CD 40 mg/mL; 24 h; pH exp 4.2
Experimental: The vial contents are prepared starting with 2.5 mg of the compound of formula (I). The primary excipient is added followed by any further excipient and then the buffered water to a total volume of 500 μL. All components are mixed in a vortex mixer for ca. 5 minutes. […] The solubility in vial 1 is measured immediately as described below. To measure solubility 400 μl of the suspension are taken and placed in a centrifugation device above a 0.2 μm filter. […] The pH of the solution is measured. […]
QUANTITY NAME: solubility at 24 h (µg/mL)
Respond with the bare value in µg/mL.

Form field solubility at 24 h, entry COc1cc(N2CCNCC2)ccc1Nc1ncc2c(n1)-n1ccc(C(=O)Nc3c(C)cccc3C)c1CC2 [compound of formula (I)] : 3800

###

PROCEDURE SUMMARY: Solubility measurement of saturated solutions by HPLC at room temperature (0 h and 24 h)
Type: physicochemical
PARTICULARS: buffered water with excipients, pH 4, aqueous with cosolvent or surfactant or cyclodextrin, thermodynamic from solid, CBS 30 mM pH 4.0, NaCl 6 mg/mL; SBE-beta-CD 40 mg/mL + Propylene glycol 5 mg/mL; 24 h; pH exp 4.3
Experimental: The vial contents are prepared starting with 2.5 mg of the compound of formula (I). The primary excipient is added followed by any further excipient and then the buffered water to a total volume of 500 μL. All components are mixed in a vortex mixer for ca. 5 minutes. […] The solubility in vial 1 is measured immediately as described below. To measure solubility 400 μl of the suspension are taken and placed in a centrifugation device above a 0.2 μm filter. […] The pH of the solution is measured. […]
QUANTITY NAME: solubility at 24 h (µg/mL)
Kindly provide the numeric value in µg/mL only, without the unit symbol.

For COc1cc(N2CCNCC2)ccc1Nc1ncc2c(n1)-n1ccc(C(=O)Nc3c(C)cccc3C)c1CC2 the compound record lists solubility at 24 h as 3820

###

PROCEDURE SUMMARY: Solubility measurement of saturated solutions by HPLC at room temperature (0 h and 24 h)
Type: physicochemical
PARTICULARS: buffered water with excipients, pH 4, aqueous with cosolvent or surfactant or cyclodextrin, thermodynamic from solid, CBS 30 mM pH 4.0, NaCl 3 mg/mL; SBE-beta-CD 40 mg/mL + PEG 400 20 mg/mL; 24 h; pH exp 4.2
QUANTITY NAME: solubility at 24 h (µg/mL)
Give the value, in units of µg/mL, as a plain number.

// sample COc1cc(N2CCNCC2)ccc1Nc1ncc2c(n1)-n1ccc(C(=O)Nc3c(C)cccc3C)c1CC2 , its solubility at 24 h was 3810

###

PROCEDURE SUMMARY: Solubility measurement of saturated solutions by HPLC at room temperature (0 h and 24 h)
Assay type: physicochemical
PARTICULARS: buffered water with excipient (saturated solution), pH 4, aqueous with cosolvent or surfactant or cyclodextrin, thermodynamic from solid, CBS 30 mM pH 4.0; Glycerol 100 mg/mL; 24 h; pH exp 4.3
QUANTITY NAME: solubility at 24 h (µg/mL)
Kindly provide the numeric value in µg/mL only, without the unit symbol.

Query COc1cc(N2CCNCC2)ccc1Nc1ncc2c(n1)-n1ccc(C(=O)Nc3c(C)cccc3C)c1CC2 yields solubility at 24 h of 130

###

PROCEDURE SUMMARY: Solubility measurement of saturated solutions by HPLC at room temperature (0 h and 24 h)
Type: physicochemical
PARTICULARS: buffered water with excipient (saturated solution), pH 4, aqueous with cosolvent or surfactant or cyclodextrin, thermodynamic from solid, CBS 30 mM pH 4.0, NaCl 3 mg/mL; SBE-beta-CD 40 mg/mL; 0 h; pH exp 4.0
QUANTITY NAME: solubility at 0 h (µg/mL)
Report the value in µg/mL with no unit label.

Noted for COc1cc(N2CCNCC2)ccc1Nc1ncc2c(n1)-n1ccc(C(=O)Nc3c(C)cccc3C)c1CC2 : its solubility at 0 h reads 2480
